Tested on: SK-MEL-5
ASSAY_PROCEDURE: NCI tumour cell line growth inhibition, 48 h
Hit rate of the full screen: of about 57,000 sequences, about 4,100 (7.2%) were called active. These entries were drawn from the full list. Measured potencies and affinities stand elsewhere.
MEASURED_QUANTITY: log10(GI50) (log10 of the value in µM)
// units: µM (pre-log); metric: GI50; scale: log10

# count of solved cases: 3
[Bis(aminomethyl)ethylmethylsilane]tetrachloroplatinum(IV), CHEMBL2146192 | 0.06
[Bis(aminomethyl)tetramethylenesilane]tetrachloropaltinum(IV), CHEMBL2146189 | 0.76
mu-(1,7-nanodiamine-N,N')bis-(cis-aminedichloroplatimum (II)), CHEMBL2146215 | 0.76

Could I get log10(GI50) for every one of these entries?
1. [Bis(aminomethyl)dimethylsilane]dichloroplatinum (II), CHEMBL2146201
2. CISPLATIN, CHEMBL11359
3. [Bis(aminomethyl)pentamethylenesilane]tetrachloropaltinum(IV), CHEMBL2146204
4. [Bis(aminomethyl)tetramethylenesilane]dichloropaltinum(II), CHEMBL2146205

## Output
[1.05, 0.43, 0.51, 1.17]

Origin of measurements: ChEMBL document CHEMBL1201862
